This collection of values is drawn from patent US20230027985A1.

- EXPERIMENTAL SYSTEM: Purified recombinant ADAMTS-7 (rat prodomain/human catalytic domain, SEQ ID No. 01 or 02) (Homo sapiens)
- Construct: rat ADAMTS-7 signal peptide + prodomain (rat 1-217, Q1EHB3) (N); 2xStrep tag (C); 6xHis tag (C); made in house; host or cells: Expi293 cells
- Sequence (Q9UKP4 237-537): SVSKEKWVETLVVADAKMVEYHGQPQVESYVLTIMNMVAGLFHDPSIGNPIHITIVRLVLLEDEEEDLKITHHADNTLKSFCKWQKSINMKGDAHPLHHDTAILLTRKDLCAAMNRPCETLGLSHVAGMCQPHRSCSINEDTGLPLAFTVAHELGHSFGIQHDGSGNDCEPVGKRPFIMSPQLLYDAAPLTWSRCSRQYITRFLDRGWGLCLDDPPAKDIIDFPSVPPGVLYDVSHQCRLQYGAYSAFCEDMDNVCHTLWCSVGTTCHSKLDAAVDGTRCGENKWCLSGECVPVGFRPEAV
- MEASUREMENT NOTES: Assay for ADAMTS-7 enzymatic activity (FRET substrate cleavage)
- Assay type: biochemical
- CONDITIONS: FRET substrate SEQ ID No. 11, 120 min at 32° C.; read-out: ADAMTS7-IC50
TEST READOUT: pIC50
// pIC50 is dimensionless: -log10 of concentration (M)

Data request: What does the data say about its pIC50? Entry: O=C1NC(=O)C(CNC(=O)c2cnn(-c3cc(F)c(F)c(F)c3)n2)(C2CCC2)N1 (centres unmarked)
Data returned: 7.80

Data request: What does the data say about its pIC50? Entry: O=C1NC(=O)C(CNC(=O)c2cnn(-c3ccc(F)cc3)n2)(C2CCC2)N1 (centres unmarked) [Example 77]
Data returned: 7.62

Data request: What does the data say about its pIC50? Entry: O=C1NC(=O)C(CNC(=O)c2cnn(-c3ccc(F)cc3)n2)(C2CCOCC2)N1 (racemic) [Example 67]
Data returned: 6.59

Data request: What does the data say about its pIC50? Entry: "O=C1NC(=O)[C@](CNC(=O)c2cnn(-c3ccc(Br)cc3)n2)(C2CC2)N1"
Data returned: 7.24

Data request: What does the data say about its pIC50? Entry: Cn1nccc1C1(CNC(=O)c2cnn(-c3ccc(F)cc3)n2)NC(=O)NC1=O (racemic)
Data returned: 8.00

Data request: What does the data say about its pIC50? Entry: CCCCC1(CNC(=O)c2cnn(-c3ccc(F)cc3)n2)NC(=O)NC1=O (racemic) [Example 68]
Data returned: 6.92

Data request: What does the data say about its pIC50? Entry: Cc1nc(C2(CNC(=O)c3cnn(-c4ccc(F)cc4)n3)NC(=O)NC2=O)c(C)s1 (racemic)
Data returned: 7.00

Data request: What does the data say about its pIC50? Entry: Cn1ccnc1C1(CNC(=O)c2cnn(-c3cc(F)c(F)c(F)c3)n2)NC(=O)NC1=O (racemic) [Example 143]
Data returned: 8.30

Data request: What does the data say about its pIC50? Entry: O=C1NC(=O)C(CNC(=O)c2cnn(-c3ccccc3)n2)(C2CCOC2)N1 (racemic)
Data returned: 6.77

Data request: What does the data say about its pIC50? Entry: O=C1NC(=O)C(CNC(=O)c2cnn(-c3cccc(F)c3)n2)(C2CCC2)N1 (centres unmarked)
Data returned: 8.10

New cases:
Data request: What does the data say about its pIC50? Entry: O=C1NC(=O)C(CNC(=O)c2cnn(-c3ccc(F)c(Cl)c3)n2)(c2nccs2)N1 (racemic) [Example 111]
Data returned: 7.46

Data request: What does the data say about its pIC50? Entry: Cn1ccnc1C1(CNC(=O)c2cnn(-c3ccc(F)cc3)n2)NC(=O)NC1=O (single isomer, unassigned; ent-2) [Example 144]
Data returned: 8.70

Data request: What does the data say about its pIC50? Entry: CC(C)C1(CNC(=O)c2cnn(-c3ccccc3)n2)NC(=O)NC1=O (centres unmarked) [Example 70]
Data returned: 7.12

Data request: What does the data say about its pIC50? Entry: "Cc1ccc(-n2ncc(C(=O)NC[C@@]3(C4CC4)NC(=O)NC3=O)n2)cc1"
Data returned: 7.33

Data request: What does the data say about its pIC50? Entry: O=C1NC(=O)C(CNC(=O)c2cnn(-c3ccc(F)cc3)n2)(C2(Cl)CC2)N1 (racemic)
Data returned: 7.13

Data request: What does the data say about its pIC50? Entry: O=C1NC(=O)C(CNC(=O)c2cnn(-c3ccccc3)n2)(CC2CC2)N1 (racemic)
Data returned: 6.17

Data request: What does the data say about its pIC50? Entry: CC(C)C1(CNC(=O)c2cnn(-c3ccc(F)c(F)c3)n2)NC(=O)NC1=O (racemic) [Example 122]
Data returned: 7.96
